Could you please report measured Inhibitory activity on HBV-RT (%) for the items listed next?
# System: HBV polymerase
# Protocol: Inhibitory effect on the in vitro activities of HBV polymerase in reverse transcription (ELISA-type)
# Format: biochemical
# Study conditions: 1 μg/ml
# value in %; strip the unit string

Request the reported Inhibitory activity on HBV-RT (%) associated with Cc1ccc(C(=O)NCCCn2ccnc2)c(Nc2ccc3cn[nH]c3c2)n1
88

Can you handle CNC(=O)c1ccc(C)nc1Nc1ccc2cn[nH]c2c1 next?
70

Now give it for Cc1ccc(C(=O)N[C@H]2CC[C@H](O)CC2)c(Nc2ccc3[nH]ncc3c2)n1 too.
80

Now consider Cc1ccc(C(=O)NCCc2ccccn2)c(Nc2ccc3[nH]ncc3c2)n1 .
84

Next compound up: Cc1ccc(C(=O)NC2CC2)c(Nc2ccc3cn[nH]c3c2)n1
84

Try the compound Cc1ccc(C(=O)NCCN(C)C)c(Nc2ccc3cn[nH]c3c2)n1
86

Can you check Cc1ccc(C(=O)Nc2cccnc2)c(Nc2ccc3[nH]ncc3c2)n1 next?
92

Also need Cc1ccc(C(=O)NN2CCOCC2)c(Nc2ccc3cn[nH]c3c2)n1 , thanks.
78

Also Cc1ccc(C(=O)Nc2cccnc2)c(Nc2ccc3cn[nH]c3c2)n1 ?
69

---

# System: HBV polymerase
# Protocol: Inhibitory effect on the in vitro activities of HBV polymerase in reverse transcription (ELISA-type)
# Format: biochemical
# Study conditions: 1 μg/ml
# Procedure: The present inventors submitted application for a patent concerning HBV polymerase genetically expressed in and separated from E. coli, the process of its preparation, and the method to measure the enzyme activities (KR 94-3918, KR 96-33998). […] The inhibitory effects in HBV polymerase activities for reverse transcription were calculated using the group without test compound as a control and the results are shown in Table 1 as follows.
Measure name: Inhibitory activity on HBV-RT (%)
Could you give me the number in %? Just the number is fine.

Quick one: Inhibitory activity on HBV-RT (%) for Cc1ccc(C(=O)NCc2cccnc2)c(Nc2ccc3cn[nH]c3c2)n1 [Example 19] ?
76

Here is the next molecule: Cc1ccc(C(=O)N(N)c2ccccn2)c(Nc2ccc3cn[nH]c3c2)n1 [Example 21]
86

Also need Cc1ccc(C(=O)NN2CCOCC2)c(Nc2ccc3[nH]ncc3c2)n1 [Example 2] , thanks.
88

Next entry: Cc1ccc(C(=O)NC(C)(C)C)c(Nc2ccc3cn[nH]c3c2)n1 [Example 9]
65

Note, next up: Cc1ccc(C(=O)NCCN2CCOCC2)c(Nc2ccc3cn[nH]c3c2)n1 [Example 14]
91

---

# System: HBV polymerase
# Protocol: Inhibitory effect on the in vitro activities of HBV polymerase in reverse transcription (ELISA-type)
# Assay type: biochemical
# Study conditions: 0.01 μg/ml
Field 'label' (enum: MET / NOT MET). Set to MET when Inhibitory activity on HBV-RT (%) is strictly under 30%; else NOT MET.

I wonder whether Cc1ccc(C(=O)Nc2cccnc2)c(Nc2ccc3cn[nH]c3c2)n1 has Inhibitory activity on HBV-RT (%) below 30%. Can you tell?
MET

Queued: Cc1ccc(C(=O)NC(C)C)c(Nc2ccc3cn[nH]c3c2)n1
MET

# repeat for Cc1ccc(C(=O)NCCc2ccccn2)c(Nc2ccc3[nH]ncc3c2)n1
NOT MET

What do you get for Cc1ccc(C(=O)NCCN2CCOCC2)c(Nc2ccc3cn[nH]c3c2)n1 ?
NOT MET

Now the same for Cc1ccc(C(=O)N[C@H]2CC[C@H](O)CC2)c(Nc2ccc3[nH]ncc3c2)n1
NOT MET

Also check Cc1ccc(C(=O)NCCN2CCCCC2)c(Nc2ccc3cn[nH]c3c2)n1
MET

Proceed to Cc1ccc(C(=O)NCc2cccnc2)c(Nc2ccc3[nH]ncc3c2)n1
NOT MET

Follow-up item: Cc1ccc(C(=O)NCCN(C)C)c(Nc2ccc3cn[nH]c3c2)n1
NOT MET

Also, Cc1ccc(C(=O)NC(C)(C)C)c(Nc2ccc3cn[nH]c3c2)n1 please.
MET

Try Cc1ccc(C(=O)N(N)C(=O)c2cccnc2)c(Nc2ccc3cn[nH]c3c2)n1 next.
MET

Repeat for the following compound: CCN(CC)CCNC(=O)c1ccc(C)nc1Nc1ccc2cn[nH]c2c1
MET

Could you do the same for Cc1ccc(C(=O)NC2CC2)c(Nc2ccc3cn[nH]c3c2)n1 , please?
NOT MET

Proceed to Cc1ccc(C(=O)NCCCn2ccnc2)c(Nc2ccc3cn[nH]c3c2)n1
NOT MET

Similarly, Cc1ccc(C(=O)NCc2cccnc2)c(Nc2ccc3cn[nH]c3c2)n1 ?
NOT MET

Try this compound too: Cc1ccc(C(=O)Nc2cccnc2)c(Nc2ccc3[nH]ncc3c2)n1
NOT MET

Next compound up: Cc1ccc(C(=O)N2CCOCC2)c(Nc2ccc3cn[nH]c3c2)n1
MET

Would you mind doing Cc1ccc(C(=O)NCCO)c(Nc2ccc3cn[nH]c3c2)n1 as well?
NOT MET

What would you report for Cc1ccc(C(=O)NN2CCN(C)CC2)c(Nc2ccc3cn[nH]c3c2)n1 ?
MET

Next up: Cc1ccc(C(=O)NN2CCOCC2)c(Nc2ccc3cn[nH]c3c2)n1
NOT MET

How about Cc1ccc(C(=O)NN2CCOCC2)c(Nc2ccc3[nH]ncc3c2)n1 ?
NOT MET

Same again, this time with CNC(=O)c1ccc(C)nc1Nc1ccc2cn[nH]c2c1
MET
